# System: MIA PaCa-2
# procedure summary: Antiproliferative activity against human MIA PaCa-2 cells after 24 to 48 hrs by Cell Titer-Glo luminiscent cell viability assay
# Assay type: functional, cell-based
Reported IC50 values follow for various compounds
State just the number; it will be interpreted in µM.

Cc1nc2n(c(=O)c1CCN1CCC(c3noc4cc(F)ccc34)CC1)CCCC2 | 10

// next item, IC50 requested
Record lookup: for MIA PaCa-2, what IC50 belongs to COc1ccc(CCN2CCC(Nc3nc4ccccc4n3Cc3ccc(F)cc3)CC2)cc1 ?
1.3

// data source = ChEMBL document CHEMBL5050839
